Assay: Liver microsomal stability, mouse
Assay type: in vitro ADME
Conditions: pooled mouse liver microsomes, read-out: In vitro CLint
Entries and their microsomal CLint

| Molecule smiles | microsomal CLint (µL/min/mg) |
| --- | --- |
| O=C(O)c1ccc(C2(NC(=O)c3c(F)sc4ccn(Cc5ccc(C(F)(F)F)cc5)c34)CC2)cc1 | 6.85 |
| COc1sc2ccn(Cc3ccc(C(F)(F)F)cc3)c2c1C(=O)NC1(c2ccc(C(=O)O)cc2)CC1 | 10.6 |
| O=C(O)c1ccc(C2(NC(=O)c3c(Cl)sc4ccn(Cc5ccc(C(F)(F)F)cc5)c34)CC2)cc1 | 15 |

----------
Test: Rat pharmacokinetic (PK) assay
Type: in vivo, Sprague-Dawley rat
Details: male, Sprague-Dawley, plasma; Rat iv, dose 5 mg/kg (table)

| Molecule smiles | AUC(0-inf) (ng·h/mL) |
| --- | --- |
| O=C(O)c1ccc(C2(NC(=O)c3c(Cl)sc4ccn(Cc5ccc(C(F)(F)F)cc5)c34)CC2)cc1 | 33600 |

----------
Target: EP4 receptor (Homo sapiens (Human), UniProt P35408)
Sequence (P35408 whole entry): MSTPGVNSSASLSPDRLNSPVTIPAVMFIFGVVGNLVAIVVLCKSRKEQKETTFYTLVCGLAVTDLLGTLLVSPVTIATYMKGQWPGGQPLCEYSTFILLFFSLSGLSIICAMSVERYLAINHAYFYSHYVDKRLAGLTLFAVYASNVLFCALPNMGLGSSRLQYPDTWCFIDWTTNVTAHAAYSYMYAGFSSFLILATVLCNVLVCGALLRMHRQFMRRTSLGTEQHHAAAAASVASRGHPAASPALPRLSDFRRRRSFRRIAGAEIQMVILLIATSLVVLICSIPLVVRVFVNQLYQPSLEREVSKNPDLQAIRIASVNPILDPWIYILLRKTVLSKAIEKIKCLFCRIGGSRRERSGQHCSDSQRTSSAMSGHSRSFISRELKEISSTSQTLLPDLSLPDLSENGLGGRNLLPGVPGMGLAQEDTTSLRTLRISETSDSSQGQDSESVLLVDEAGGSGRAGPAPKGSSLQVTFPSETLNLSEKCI
Test: EP4 receptor binding assay (inhibition of [3H]PGE2 binding)
Settings: human recombinant Chem-1 cells, 1 nM [3H]PGE2, 2 hours @25° C.
Readout label: IC50 (nM)

| Compound | Assayed target | Readout label | Value reported |
| --- | --- | --- | --- |
| O=C(O)c1ccc(C2(NC(=O)c3c(F)sc4ccn(Cc5ccc(C(F)(F)F)cc5)c34)CC2)cc1 | EP4 receptor (Homo sapiens (Human), UniProt P35408) | IC50 | 0.48 |
| CC(NC(=O)c1c(Cl)sc2ccn(Cc3ccc(C(F)(F)F)cc3)c12)C12CC(C(=O)O)(C1)C2 (stereo not drawn) | EP4 receptor (Homo sapiens (Human), UniProt P35408) | IC50 | 180 |
| Cc1sc2ccn(Cc3ccc(C(F)(F)F)cc3)c2c1C(=O)NC1(C23CCC(C(=O)O)(CC2)CC3)CC1 | EP4 receptor (Homo sapiens (Human), UniProt P35408) | IC50 | 4.9 |

----------
Assay: Liver microsomal stability, mouse
Assay type: in vitro ADME
Details: pooled mouse liver microsomes, read-out: Scale-up CLint
Readout label: CLint scaled (mL/min/kg)

| Molecule smiles | Readout label | Value reported |
| --- | --- | --- |
| O=C(O)c1ccc(C2(NC(=O)c3c(Cl)sc4ccn(Cc5ccc(C(F)(F)F)cc5)c34)CC2)cc1 | CLint scaled | 66.1 |
| COc1sc2ccn(Cc3ccc(C(F)(F)F)cc3)c2c1C(=O)NC1(c2ccc(C(=O)O)cc2)CC1 | CLint scaled | 46.7 |
| O=C(O)c1ccc(C2(NC(=O)c3c(F)sc4ccn(Cc5ccc(C(F)(F)F)cc5)c34)CC2)cc1 | CLint scaled | 30.1 |

----------
Target: EP4 receptor (Homo sapiens (Human), UniProt P35408)
Assay: EP4 receptor binding assay (inhibition of [3H]PGE2 binding)
Settings: human recombinant Chem-1 cells, 1 nM [3H]PGE2, 2 hours @25° C.
Lab note - cut at 1 nM for IC50: met if strictly below, not met if not.

| Molecule smiles | Label |
| --- | --- |
| Cc1sc2ccn(Cc3ccc(C(F)(F)F)cc3)c2c1C(=O)NC1(C23CC(C(=O)O)(C2)C3)CC1 | not met |
| O=C(O)c1ccc(C2(NC(=O)c3c(C(F)(F)F)sc4ccn(Cc5ccc(C(F)(F)F)cc5)c34)CC2)cc1 | not met |
| COc1sc2ccn(Cc3ccc(C(F)(F)F)cc3)c2c1C(=O)NC1(c2ccc(C(=O)O)cc2)CC1 | met |
| O=C(NC1(C23CC(C(=O)O)(C2)C3)CC1)c1c(Cl)sc2ccn(Cc3ccc(C(F)(F)F)cc3)c12 | not met |
| O=C(O)c1ccc(C2(NC(=O)c3c(Cl)sc4ccn(Cc5ccc(C(F)(F)F)cc5)c34)CC2)cc1 | met |
| O=C(O)c1ccc(C2(NC(=O)c3c(CO)sc4ccn(Cc5ccc(C(F)(F)F)cc5)c34)CC2)cc1 | not met |
| O=C(NC1(C23CCC(C(=O)O)(CC2)CC3)CC1)c1c(Cl)sc2ccn(Cc3ccc(C(F)(F)F)cc3)c12 | not met |
